tested.target: Mitogen-activated protein kinase 10 (Mus musculus) (UniProt Q61831)
assay: JNK3 AlphaScreen Assay (AID 530);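 also: kinase came from lysate of stimulated human HepG2 cells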
assay.conditions: JNK3 lysate, c-Jun phosphorylation; series mostly up to 57.1 µM
Records with an inconclusive call do not appear. Activity calls are given as the source filed them. Calls follow the shape of the dose curve; as a rule, active = well fitted curve in either direction with a large enough effect (not every such curve was filed as active); inconclusive = small, poorly fitted or top-dose-only effect, or another doubt; inactive = flat fitted curve, though single readings scatter. Peptide text beside a SMILES is read from it.
Classes to choose from: true (active), false (inactive)

Incoming: Field: outcome | Entry: `O=C1c2ccccc2-c2n[nH]c3cccc1c23`
Outgoing: true

Incoming: Call for entry `Cc1cc(C2CCCCC2)n(O)c(=O)c1` :
Outgoing: false

Incoming: What was the test verdict on `COc1cc(OC)c(C(=O)CCCN2CCCC2)c(OC)c1` ?
Outgoing: false

Incoming: Test call, this molecule: `NNc1nncc2ccccc12`
Outgoing: false

Incoming: Tell me the recorded outcome of this test for `COc1ccc2cc([C@H](C)C(=O)O)ccc2c1` .
Outgoing: false

Incoming: GET /call?item= `CCCc1cc(=O)[nH]c(=S)[nH]1` returns the recorded outcome of this test.
Outgoing: false

Incoming: Hi team, can someone confirm the assay call for `CN1C(C(=O)Nc2ccccn2)=C(O)c2sccc2S1(=O)=O` ?
Outgoing: false

Incoming: What is the recorded call for this molecule in the test? `CS(=O)(=O)OCCCCOS(C)(=O)=O`
Outgoing: false

Incoming: Hi, do you know how `NS(=O)(=O)c1cc(C(=O)O)c(NCc2ccco2)cc1Cl` came out in this test?
Outgoing: false

Incoming: Assay outcome for `O=C(O)c1cc(=O)c2c(OCC(O)COc3cccc4oc(C(=O)O)cc(=O)c34)cccc2o1` : what was it?
Outgoing: false

Incoming: // outcome(item) with item = `c1ccc2[nH]c(-c3cscn3)nc2c1`
Outgoing: false

Incoming: // param item: `Cc1nc2n(c(=O)c1CCN1CCC(c3noc4cc(F)ccc34)CC1)CCCC2` ; yields the recorded call
Outgoing: false

Incoming: Please share the test call associated with `NC(=NCc1ccccc1)NC(=O)c1nc(Cl)c(N)nc1N` .
Outgoing: false

Incoming: For this molecule, state the assay outcome: `CC1(C)NC(=O)N(c2ccc([N+](=O)[O-])c(C(F)(F)F)c2)C1=O`
Outgoing: false

Incoming: For `COc1ccccc1N1CCN(CCN(C(=O)C2CCCCC2)c2ccccn2)CC1` , what call appears in the results of this test?
Outgoing: false

Incoming: Identify the outcome logged in this assay for the molecule shown: CCCCN(CCCC)CCC(O)c1cc2c(Cl)cc(Cl)cc2c2cc(C(F)(F)F)ccc12 (stereo unspecified)
Outgoing: false

Incoming: Please indicate how the test categorized `CCN(CC)C(=S)SSC(=S)N(CC)CC` .
Outgoing: false

Incoming: So what was the verdict on COC(=O)[C@H](Cc1ccccc1)NC(=O)[C@@H](N)CC(=O)O (H-Asp-Phe-OMe) in this test?
Outgoing: false

Incoming: Test call for this molecule, please: `O=c1ccc2ccc(O)c(O)c2o1`
Outgoing: false

Incoming: Please indicate how the test categorized `CN1CCC(=C2c3ccccc3CCc3sccc32)CC1` .
Outgoing: false

Incoming: Entry `CCc1nc(N)nc(N)c1-c1ccc(Cl)cc1` : call = ?
Outgoing: false

Incoming: What did this assay record as the result for `Cc1cc2cc3c(C)cc(=O)oc3c(C)c2o1` ?
Outgoing: false

Incoming: Could you please tell me the result logged for `Cc1cccc(C#Cc2ccccc2)n1` in this assay?
Outgoing: false

Incoming: How was `CC(C)c1ccc2c(c1)c(SC(C)(C)C)c(CC(C)(C)C(=O)O)n2Cc1ccc(Cl)cc1` classified in this test?
Outgoing: false

Incoming: What classification did `CCN(CC)CCOc1ccc(Cc2ccccc2)cc1` end up with in this test?
Outgoing: false

Incoming: Dear colleague, could you share the recorded outcome for `NCCCCNCCCN` when you have a moment?
Outgoing: false

----------
assay: Primary qHTS for inhibitors of nuclear receptor binding SET domain protein 2 (NSD2) in an isogenic RCH-ACV NSD2 p.E1099K mutant (9B) (AID 1645876); also: nearly all actives have a fitted effect of over 70% in size
assay.conditions: RCH-ACV (leukaemia line) NSD2 E1099K (9B) viability, CellTiter-Glo, 72 h; series mostly up to 44.9 µM
Inconclusive results are not listed. Activity calls are given as the source filed them. The call rests on the fitted dose curve; in most records, active means well fitted inhibition curve with a large enough effect; inconclusive means small, poorly fitted or top-dose-only effect; inactive means flat fitted curve, though single readings scatter.
Give one outcome, nothing more. List: active, inactive

Incoming: Test call for this compound, please: `Clc1ccc2c(N3CCN(CCCN4CCN(c5ccnc6cc(Cl)ccc56)CC4)CC3)ccnc2c1`
Outgoing: inactive

Incoming: # outcome recorded in this test, key = `Cc1nc(-c2ccc(OCC(C)C)c(C#N)c2)sc1C(=O)O`
Outgoing: inactive

Incoming: Could you check what this test reported for CC(S)C(=O)NCC(=O)O (stereo not drawn) ?
Outgoing: inactive

Incoming: What is the recorded call for this compound in the test? Cc1ccc(S(=O)(=O)NC(=O)NN2CC3CCCC3C2)cc1 (stereo not drawn)
Outgoing: inactive

Incoming: Please let me know the test result on file for `CCN(CC)CCOc1ccc(Nc2ncc3cc(-c4c(Cl)cccc4Cl)c(=O)n(C)c3n2)cc1` .
Outgoing: active

Incoming: Kindly provide the recorded test outcome for the following compound: Nc1cccc2c1CN(C1CCC(=O)NC1=O)C2=O (stereo not drawn)
Outgoing: inactive

Incoming: Name the outcome recorded for `O=C(O)c1cn(-c2ccc(F)cc2)c2cc(N3CCNCC3)c(F)cc2c1=O` in the assay.
Outgoing: inactive

Incoming: Test call, this compound: `CN(C)c1ccc(O)c2c1C[C@H]1C[C@H]3[C@H](N(C)C)C(=O)C(C(N)=O)=C(O)[C@@]3(O)C(=O)C1=C2O`
Outgoing: inactive

Incoming: Call for entry `CCOC(=O)c1c(C)n(C)c2ccc(O)cc12` :
Outgoing: inactive

Incoming: Answer briefly: the call reported for `Cc1ccc(C)c(OCCCC(C)(C)C(=O)O)c1` in this assay.
Outgoing: inactive

Incoming: Outcome logged for CCC1=C(C)CN(C(=O)NCCc2ccc(S(=O)(=O)NC(=O)NC3CCC(C)CC3)cc2)C1=O (stereo not drawn) in this assay:
Outgoing: inactive

Incoming: Lab log entry: `CC(C)[C@H](N)C(=O)OCCOCn1cnc2c(=O)[nH]c(N)nc21` — outcome as called in the assay?
Outgoing: inactive

Incoming: What classification did `O=c1oc2cc(O)ccc2s1` end up with in this test?
Outgoing: active

Incoming: What classification did Nc1ccn([C@@H]2O[C@H](CO)[C@@H](O)C2O)c(=O)n1 (stereo partly drawn) end up with in this test?
Outgoing: active

Incoming: Hi team, can someone confirm the assay call for `NS(=O)(=O)c1cc(C(=O)O)c(NCc2ccco2)cc1Cl` ?
Outgoing: inactive

Incoming: Can you look up the reported call for `Cc1cc2cc3c(C)cc(=O)oc3c(C)c2o1` for me?
Outgoing: inactive

Incoming: Hey, what did the test say about `N=C(N=C(N)N)N1CCOCC1` ?
Outgoing: inactive

Incoming: Which outcome was entered for the compound `CC1(C)NC(=O)N(c2ccc([N+](=O)[O-])c(C(F)(F)F)c2)C1=O` in this test?
Outgoing: inactive

----------
assay: qHTS of pediatric cancer cell lines to identify multiple opportunities for drug repurposing: Primary screen for Rh30 cells (AID 1347107); also: nearly all actives have a fitted effect of over 75% in size
assay.conditions: Rh30 rhabdomyosarcoma viability, CellTiter-Glo luminescence, 48 h; series mostly up to 46 µM
Results filed as inconclusive are left out. Active and inactive are the calls of the source. The call rests on the fitted dose curve; in most records, active means well fitted cell-killing curve with a large enough effect; inconclusive means small, poorly fitted or top-dose-only effect; inactive means no such curve, though single readings can be large or run the other way. Non-standard residues stand in square brackets, D forms with d. Residues, ends and D or L forms follow the SMILES beside them. *: point of attachment. Sta = CC(C)C[C@H](N)[C@@H](O)CC(=O)O; Isovaleryl = CC(C)CC(=O)*
measured.property: outcome

c1cnc2cc3c(cc2n1)C1CNCC3C1 | inactive
O=C(CCc1ccc(O)cc1)c1c(O)cc(O)cc1O | inactive
CC(C)CC(=O)N[C@H](C(=O)N[C@H](C(=O)N[C@@H](CC(C)C)[C@@H](O)CC(=O)N[C@@H](C)C(=O)N[C@@H](CC(C)C)[C@@H](O)CC(=O)O)C(C)C)C(C)C (Isovaleryl-VV[Sta]A[Sta]-OH) | inactive
COC1=C(OC)C(=O)C(CCCCCCCCCCO)=C(C)C1=O | inactive

----------
System: CP185
assay: qHTS profiling for inhibitors of Plasmodium falciparum proliferation (AID 504749); also: nearly all actives have a fitted effect of over 60% in size
assay.conditions: P. falciparum in erythrocytes, SYBR Green DNA, 72 h; series mostly up to 28.7 µM
Inconclusive results are not listed. The source made the active and inactive calls. Calls follow the shape of the dose curve; as a rule, active = well fitted inhibition curve with a large enough effect; inconclusive = small, poorly fitted or top-dose-only effect; inactive = flat fitted curve, though single readings scatter.
Respond with a class label; see True (active), False (inactive)

Incoming: Call for entry `Cc1cccc(C)c1OCC(=O)N[C@@H](Cc1ccccc1)[C@@H](O)C[C@H](Cc1ccccc1)NC(=O)[C@H](C(C)C)N1CCCNC1=O` :
Outgoing: True

Incoming: Tell me the assay call for `Cc1nc2n(c(=O)c1CCN1CCC(c3noc4cc(F)ccc34)CC1)CCCC2` please.
Outgoing: False

Incoming: Status in this test for Clc1ccc(C(Cn2ccnc2)OCc2ccsc2Cl)c(Cl)c1 (centres undefined) ?
Outgoing: True

Incoming: Given `Nc1nc(Cl)nc2c1ncn2[C@H]1C[C@H](O)[C@@H](CO)O1` , state the outcome it received in this test.
Outgoing: False

Incoming: Look up the recorded call for CC1=C(C)C(=O)C(C(CCCCCC(=O)O)c2ccccc2)=C(C)C1=O (centres undefined) in this test.
Outgoing: False

Incoming: Please let me know the test result on file for `CC(C)(S)[C@@H](N)C(=O)O` .
Outgoing: False

Incoming: Query: recorded result category for `CN(C)CCc1c[nH]c2ccc(Cn3cncn3)cc12` in this test
Outgoing: False

Incoming: What classification did `C[C@]12CCC(=O)C=C1CC[C@@H]1[C@H]2[C@@H](O)C[C@@]2(C)[C@H]1CC[C@]2(O)C(=O)CO` end up with in this test?
Outgoing: False

Incoming: Recorded call for `NNc1nncc2ccccc12` ?
Outgoing: False
